- TARGET: PP1B (Homo sapiens, UniProt P62140)
- Construct: purchased Recation Biology Inc
- Sequence (P62140 whole entry): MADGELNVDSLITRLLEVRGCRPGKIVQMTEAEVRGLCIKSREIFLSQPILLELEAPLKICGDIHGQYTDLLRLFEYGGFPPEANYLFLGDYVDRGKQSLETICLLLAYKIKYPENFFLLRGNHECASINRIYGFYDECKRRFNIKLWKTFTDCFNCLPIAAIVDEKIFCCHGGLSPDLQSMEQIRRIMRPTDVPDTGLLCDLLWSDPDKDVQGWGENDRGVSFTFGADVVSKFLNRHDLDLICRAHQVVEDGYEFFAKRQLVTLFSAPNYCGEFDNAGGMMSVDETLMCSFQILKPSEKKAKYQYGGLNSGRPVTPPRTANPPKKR
- ASSAY_DETAILS: Phosphatase panel, DiFMUP fluorescence assay
- Assay type: biochemical
- COND: Table 5B; read-out: Compound IC50 (M) PP1B
READOUT: IC50

Return reported IC50; argument: CC(CCC[C@@H](C)[C@H]1CCC2C3C(CC[C@@]21C)[C@@]1(C)CC[C@H](NCCCNCCCCNCCCN)C[C@@H]1C[C@H]3O)C(=O)O (single isomer, unassigned)
> 0.0001 M

* * *

Assignment: determine reported pIC50 for the given molecules.
- TARGET: PTPN7/LC-PTP (Homo sapiens, UniProt P35236)
- Construct: purchased Recation Biology Inc
- Sequence (P35236 whole entry): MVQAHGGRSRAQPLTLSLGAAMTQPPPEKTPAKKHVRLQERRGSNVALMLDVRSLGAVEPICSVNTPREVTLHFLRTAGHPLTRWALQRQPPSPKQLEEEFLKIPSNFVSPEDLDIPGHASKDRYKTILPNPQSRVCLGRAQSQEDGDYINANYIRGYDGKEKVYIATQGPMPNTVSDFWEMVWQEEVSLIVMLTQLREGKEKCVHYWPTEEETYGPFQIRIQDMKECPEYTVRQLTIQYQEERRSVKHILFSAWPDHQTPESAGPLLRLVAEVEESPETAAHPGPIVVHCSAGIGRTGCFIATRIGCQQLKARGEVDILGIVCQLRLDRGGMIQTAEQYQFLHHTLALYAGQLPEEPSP
- ASSAY_DETAILS: Phosphatase panel, DiFMUP fluorescence assay
- Assay type: biochemical
- COND: Table 19B; read-out: inhibitory activity PTPN7/LC-PTP
Numbers only, as −log10 of the molar value.

Return reported pIC50; argument: CC(CCC[C@@H](C)[C@H]1CCC2C3C(CC[C@@]21C)[C@@]1(C)CC[C@H](NCCCNCCCCNCCCN)C[C@@H]1C[C@H]3O)C(=O)O (single isomer, unassigned)
6.20

***
Return reported pIC50; argument: CC(CCC[C@@H](C)[C@H]1CCC2C3C(CC[C@@]21C)[C@@]1(C)CC[C@H](NCCCNCCCCN)C[C@@H]1C[C@H]3O)C(=O)O (single isomer, unassigned)
5.98
